Values from paper PMC7352292

Target Or Test System: ABCG2 (Homo sapiens, UniProt Q9UNQ0)
Sequence (Q9UNQ0 whole entry): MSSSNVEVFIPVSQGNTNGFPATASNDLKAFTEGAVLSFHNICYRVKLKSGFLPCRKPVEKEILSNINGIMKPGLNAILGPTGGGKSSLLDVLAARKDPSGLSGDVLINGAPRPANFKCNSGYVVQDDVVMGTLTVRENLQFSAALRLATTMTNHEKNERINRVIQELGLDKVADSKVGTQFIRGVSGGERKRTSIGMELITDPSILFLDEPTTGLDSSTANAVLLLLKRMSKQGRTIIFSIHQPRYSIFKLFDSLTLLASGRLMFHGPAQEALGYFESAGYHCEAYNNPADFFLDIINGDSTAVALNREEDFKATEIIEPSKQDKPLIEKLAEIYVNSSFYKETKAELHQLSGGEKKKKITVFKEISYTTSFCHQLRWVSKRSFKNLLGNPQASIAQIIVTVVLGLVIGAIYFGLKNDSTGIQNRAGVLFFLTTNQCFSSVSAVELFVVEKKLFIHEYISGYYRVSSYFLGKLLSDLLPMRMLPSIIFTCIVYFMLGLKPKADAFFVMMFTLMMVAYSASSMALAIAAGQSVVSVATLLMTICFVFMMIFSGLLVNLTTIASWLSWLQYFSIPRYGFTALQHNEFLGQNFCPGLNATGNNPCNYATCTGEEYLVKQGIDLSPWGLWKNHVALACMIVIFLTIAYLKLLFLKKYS
Protocol Description: Mitoxantrone accumulation in HL-60 ABCG2 cells
pIC50: −log10 of the molar value.
Assay Readout: pIC50

Compound	Assay Readout	Readout Value
CC(=O)c1c(C)c2cnc(Nc3ccc(N4CCNCC4)cn3)nc2n(C2CCCC2)c1=O [Palbociclib, palbociclib]	pIC50	4.34
CN(C)C(=O)c1cc2cnc(Nc3ccc(N4CCNCC4)cn3)nc2n1C1CCCC1 [Ribociclib, ribociclib]	pIC50	4.57
CCN1CCN(Cc2ccc(Nc3ncc(F)c(-c4cc(F)c5nc(C)n(C(C)C)c5c4)n3)nc2)CC1 [Abemaciclib, abemaciclib]	pIC50	5.53
